Cited source: paper PMC10127133

# target-desc: T1, FimH lectin domain (residues Phe1-Thr158) (Escherichia coli, UniProt P08191 22-179)
# T1 construct: FimH type-1 fimbrial adhesin of Escherichia coli, lectin domain, residues Phe1-Thr158; No tag is mentioned; also called FimH adhesin; source: E. coli C43(DE3), pET24a vector, purified (sulfopropyl fast flow cation exchange chromatography)
# T1 sequence (P08191 22-179): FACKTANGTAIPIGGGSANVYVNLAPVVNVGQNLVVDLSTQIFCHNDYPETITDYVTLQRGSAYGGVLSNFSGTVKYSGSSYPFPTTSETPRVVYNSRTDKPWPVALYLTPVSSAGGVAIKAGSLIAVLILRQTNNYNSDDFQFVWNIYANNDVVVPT
# experiment: SPR; single-cycle kinetics on BIAcore T200; ω1-glycoprotein immobilised on a CM5 chip via primary amino groups (EDC/NHS); FimH as analyte at 14.4, 7.17, 3.60, 1.80, 0.9 μM; 20 mM Hepes, 150 mM NaCl, 0.005% Tween; 30 μl/min; 298 K; fit to the Langmuir 1:1 model
# assay-setup: both partners purified
measured-endpoint: koff (s⁻¹)
Value expressed in s⁻¹; do not type the unit.

Req: Field request: koff | item: omega-1 (ω1) glycoprotein carrying X1Man3Gn2F1[3] (natural protein, N-glycans X1Man3Gn2F1[3] (oligomannose-3 with β1,2-xylose on mannose 3 and α1,3 core fucose); sites not stated) QNRWDYYVFSVTWPPTYCESIQCRLPRGLRDFTIHGLWPTIFPNRQPNCTGSLRFDIRRLQGIRNELDLMWPHLKNYRESPSFWKHEFEKHGLCAVEDPQVFNQYGYFKFGIKLMQKLNLLKTLMKYKISPHDSRQYDTINLMNVLEREFGYNGSANCIRKPGRRGMYHLEEVHVCLNRKHEFMNCPFLGNCPKKFIFPPFQ
Resp: 0.0015
